- protocol.text: Solubility measurements in various solvents (visual inspection of dissolution)
- Format: physicochemical
- particulars: 2,2,2-trifluoroethanol (TFE), organic solvent or mixture, thermodynamic from solid
reported.endpoint: solubility (mg/mL)

| molecular.string | value.observed |
| --- | --- |
| NCCOCCOCCNc1ccc2c3c(cccc13)C(=O)N(CCOCCOCCN1C(=O)c3cccc4c(NCCOCCOCCN)ccc(c34)C1=O)C2=O | 18 |

====

- protocol.text: Solubility measurements in various solvents (visual inspection of dissolution)
- Format: physicochemical
- particulars: organic solvent or mixture, thermodynamic from solid; diethyl ether (Et2O)

| compound | solubility |
| --- | --- |
| NCCOCCOCCNc1ccc2c3c(cccc13)C(=O)N(CCOCCOCCN1C(=O)c3cccc4c(NCCOCCOCCN)ccc(c34)C1=O)C2=O [Compound of Formula (I)] | < 1000 µg/mL |

====

- protocol.text: Solubility measurements in various solvents (visual inspection of dissolution)
- Type: physicochemical
- particulars: organic solvent or mixture, thermodynamic from solid; ethyl acetate (EtOAc)
reported.endpoint: solubility

| molecular.string | value.observed |
| --- | --- |
| NCCOCCOCCNc1ccc2c3c(cccc13)C(=O)N(CCOCCOCCN1C(=O)c3cccc4c(NCCOCCOCCN)ccc(c34)C1=O)C2=O | < 1000 µg/mL |

====

- protocol.text: Solubility measurements in various solvents (visual inspection of dissolution)
- Format: physicochemical
- particulars: ethanol/water (95/5, v/v), organic solvent or mixture, thermodynamic from solid

| compound | solubility |
| --- | --- |
| NCCOCCOCCNc1ccc2c3c(cccc13)C(=O)N(CCOCCOCCN1C(=O)c3cccc4c(NCCOCCOCCN)ccc(c34)C1=O)C2=O [Compound of Formula (I)] | < 1000 µg/mL |
